- experimental target: UniProt P56817
- Sequence (P56817 whole entry): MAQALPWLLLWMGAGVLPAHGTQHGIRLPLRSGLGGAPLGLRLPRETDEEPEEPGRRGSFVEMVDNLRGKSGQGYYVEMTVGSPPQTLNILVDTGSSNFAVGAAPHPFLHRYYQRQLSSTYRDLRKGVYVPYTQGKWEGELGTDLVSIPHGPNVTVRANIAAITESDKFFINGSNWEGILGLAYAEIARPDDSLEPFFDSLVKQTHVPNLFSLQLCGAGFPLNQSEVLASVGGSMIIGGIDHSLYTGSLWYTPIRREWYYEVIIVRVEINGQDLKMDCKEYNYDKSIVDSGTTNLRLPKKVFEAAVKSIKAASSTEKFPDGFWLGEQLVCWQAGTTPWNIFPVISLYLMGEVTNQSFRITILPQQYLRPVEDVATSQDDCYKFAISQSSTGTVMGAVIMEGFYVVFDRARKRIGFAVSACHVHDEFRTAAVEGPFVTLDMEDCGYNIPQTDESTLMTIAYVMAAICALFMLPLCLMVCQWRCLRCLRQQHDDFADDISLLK
- test method notes: Inhibition of BACE1 (unknown origin) at 2.5 uM relative to control
observable: inhibition
Please append the unit to your numeric answer.

Problem: Determine its reported inhibition: `O=C(NCCCCCCCCNc1c2c(nc3cc(Cl)ccc13)CCCC2)c1ccc2nc(-c3ccc(Cl)cc3)c3c(c2c1)OCCC3`
Solution: 18.5%

Problem: Determine its reported inhibition: `O=C(CCc1ccc2nc(-c3ccccc3)c3c(c2c1)OCCC3)NCCCCCCNc1c2c(nc3cc(Cl)ccc13)CCCC2`
Solution: 19.6%

Problem: Determine its reported inhibition: `O=C(CCc1ccc2nc(-c3ccccc3)c3c(c2c1)OCCC3)NCCCCCCCCNc1c2c(nc3cc(Cl)ccc13)CCCC2`
Solution: 77.8%

Problem: Determine its reported inhibition: `O=C(NCCCCCCCNc1c2c(nc3cc(Cl)ccc13)CCCC2)c1ccc2nc(-c3ccc(Cl)cc3)c3c(c2c1)OCCC3`
Solution: 14.5%

Problem: Determine its reported inhibition: `O=C(CCc1ccc2nc(-c3ccccc3)c3c(c2c1)OCCC3)NCCCCCCCNc1c2c(nc3cc(Cl)ccc13)CCCC2`
Solution: 34.4%

Sourced from ChEMBL document CHEMBL5241074
